Tested on: IPOHE
Experiment: Pre-emergence biological efficacy (Table 3)
Assay type: in vivo
Conditions: Ipomoea hederacea, 312 h, 1000 g/ha, after 13 days, read-out: evaluation (100=total damage to plant; 0=no damage to plant)
Hi all, reminder that labels come from pest or weed control at 1000 g/ha, split as lower band = under 20%, central band = from 20% up to 50%, upper band = 50% and over

Use the examples below as a reference point.
[[record]]
molecule = "COCc1c(Cl)cccc1C(F)(F)C(=O)O"
label = "central band"

[[record]]
molecule = "Nc1cc(Cl)c(Cl)c(C(F)(F)C(=O)O)c1"
label = "central band"

[[record]]
molecule = "CCOC(=O)C(F)(F)c1c(F)ccc(F)c1O"
label = "lower band"

[[record]]
molecule = "Nc1c(Cl)ccc(Cl)c1C(F)(F)C(=O)O"
label = "lower band"

[[record]]
molecule = "O=C(O)C(F)(F)c1cccc2c1OC(F)(F)O2"
label = "upper band"

[[record]]
molecule = "COc1c(Cl)cccc1C(F)(F)C(=O)O"
label = "upper band"

[[record]]
molecule = "Nc1ccc(Cl)c(C(F)(F)C(=O)O)c1Cl"
label = "lower band"

[[record]]
molecule = "Nc1c(Cl)cc(Cl)cc1C(F)(F)C(=O)O"
label = "lower band"


Input: Could you place C#Cc1cccc(C(F)(F)C(=O)O)c1Cl in its proper category? Many thanks.
Output: upper band

Input: Could you place N#Cc1cccc(C(F)(F)C(=O)O)c1F in its proper category? Many thanks.
Output: upper band

Input: Could you place CSc1c(C(F)(F)C(=O)O)ccc(Br)c1Cl in its proper category? Many thanks.
Output: lower band

Input: Could you place O=C(O)C(F)(F)c1cccc2nccnc12 in its proper category? Many thanks.
Output: upper band

Input: Could you place O=C(O)C(F)(F)c1c(Cl)ccc2c1OC(F)(F)O2 in its proper category? Many thanks.
Output: upper band
